# Test system: HDACs (HeLa cell nuclear extracts)
# method-description: HDAC enzymatic activity, Biomol Color de Lys system
# Assay type: biochemical
# run-conditions: 1 hour, 25° C.
pIC50: −log10 of the molar value.
# key: entry, value: pIC50

The following compounds have reported results that may help.
compound: COc1ccccc1Nc1nc(-c2cccc3[nH]ncc23)nc2cc(CN(C)c3ncc(C(=O)NO)cn3)sc12
pIC50: > 7.00

compound: CN(Cc1cc2nc(-c3ccc(O)nc3)nc(N3CCOCC3)c2s1)c1ncc(C(=O)NO)cn1
pIC50: > 7.00

compound: CC(C)C(=O)Nc1ccc(-c2nc(N3CCOCC3)c3sc(CN(C)c4ncc(C(=O)NO)cn4)cc3n2)cc1
pIC50: > 7.00

compound: COCCNc1nc(-c2cccc3[nH]ncc23)nc2cc(CN(C)c3ncc(C(=O)NO)cn3)sc12
pIC50: > 7.00

compound: C/C(=N/O)c1ccc(F)c(-c2nc(N3CCOCC3)c3sc(CN(C)c4ncc(C(=O)NO)cn4)cc3n2)c1
pIC50: > 7.00

compound: CN(C)c1ncc(-c2nc(N3CCOCC3)c3sc(CN(C)c4ncc(C(=O)NO)cn4)cc3n2)cn1
pIC50: > 7.00

compound: CN(Cc1cc2nc(-c3cccc4[nH]ncc34)nc(N3CCOCC3)c2s1)c1ccc(C(=O)NO)cc1
pIC50: > 7.00

compound: CN(Cc1cc2nc(-c3cccc(C(=O)O)c3)nc(N3CCOCC3)c2s1)c1ncc(C(=O)NO)cn1
pIC50: > 7.00

compound: O=C(NO)c1cnc(N(CCCO)Cc2cc3nc(-c4cccc5[nH]ncc45)nc(N4CCOCC4)c3s2)nc1
pIC50: > 7.00

compound: CN(Cc1cc2nc(-c3cnc(CN)nc3)nc(N3CCOCC3)c2s1)c1ncc(C(=O)NO)cn1
pIC50: > 7.00

**Q:** Param item = Nc1ncc(-c2nc(N3CCOCC3)c3sc(NS(=O)(=O)c4ccc(/C=C/C(=O)NO)cc4)cc3n2)cn1 ; retrieve measured pIC50.
**A:** > 7.00

**Q:** Thanks! And CN(Cc1cc2nc(-c3ccc(N)c(N)c3)nc(N3CCOCC3)c2s1)c1ncc(C(=O)NO)cn1 ?
**A:** > 7.00

**Q:** Thanks! And CN(Cc1cc2nc(-c3cccc4[nH]ncc34)nc(Nc3ccccc3)c2s1)c1ncc(C(=O)NO)cn1 ?
**A:** > 7.00

**Q:** Thanks! And CN(CCCC(=O)NO)Cc1cc2nc(-c3cccc4[nH]ncc34)nc(N3CCOCC3)c2s1 ?
**A:** < 5.00

**Q:** Thanks! And CN(Cc1cc2nc(-c3ccc(N)nc3)nc(N3CCOCC3)c2s1)c1ncc(C(=O)NO)cn1 ?
**A:** > 7.00

**Q:** Thanks! And O=C(O)CN(Cc1cc2nc(-c3cccc4[nH]ncc34)nc(N3CCOCC3)c2s1)c1ncc(C(=O)NO)cn1 ?
**A:** 6.00 to 7.00

====

# Tested on: HDACs (HeLa cell nuclear extracts)
# method-description: HDAC enzymatic activity, Biomol Color de Lys system
# Format: biochemical
# run-conditions: 1 hour, 25° C.
# Procedure: (E) an In Vitro Assay which Determines the Ability of a Test Compound to Inhibit HDAC Enzymatic Activity. HDAC inhibitory activity was assessed using the Biomol Color de Lys system (AK-500, Biomol, Plymouth Meeting, Pa.). […] Relative enzyme activity was measured in the WALLAC Victor II 1420 microplate reader as fluorescence intensity (excitation: 350-380 nm; emission: 440-460 nm). Data were analyzed using GraphPad Prism (v4.0a) with a sigmoidal dose response curve fitting for IC50 calculation.
reported-property: IC50

The following compounds have reported results that may help.
compound-string: CN(Cc1cc2nc(-c3cccc(S(N)(=O)=O)c3)nc(N3CCOCC3)c2s1)c1ncc(C(=O)NO)cn1
experimental-system: HDACs (HeLa cell nuclear extracts)
IC50: < 100 nM
--
compound-string: CN(Cc1cc2nc(-c3ccc(N)c(Cl)c3)nc(N3CCOCC3)c2s1)c1ncc(C(=O)NO)cn1
experimental-system: HDACs (HeLa cell nuclear extracts)
IC50: < 100 nM
--
compound-string: CS(=O)(=O)N1CCN(Cc2cc3nc(-c4cccc5nn(CCCCCCC(=O)NO)cc45)nc(N4CCOCC4)c3s2)CC1
experimental-system: HDACs (HeLa cell nuclear extracts)
IC50: < 100 nM
--
compound-string: Cc1ncc(-c2nc(N3CCOCC3)c3sc(NCCCCC(=O)NO)cc3n2)cn1
experimental-system: HDACs (HeLa cell nuclear extracts)
IC50: < 100 nM

**Q:** Param item = Nc1ccc(-c2nc(N3CCOCC3)c3sc(CNCc4ccc(C(=O)NO)cc4)cc3n2)cc1 ; retrieve measured IC50.
**A:** < 100 nM

**Q:** Thanks! And CN(Cc1cc2nc(-c3ccc(N)cc3)nc(N3CCOCC3)c2s1)Cc1nc2cc(/C=C/C(=O)NO)ccc2n1C ?
**A:** 100 to 1000 nM

====

# experimental-system: PI3Kα (p110α/p85α) (Homo sapiens, UniProt P42336)
# Construct: GST (N)
# Sequence (P42336 whole entry): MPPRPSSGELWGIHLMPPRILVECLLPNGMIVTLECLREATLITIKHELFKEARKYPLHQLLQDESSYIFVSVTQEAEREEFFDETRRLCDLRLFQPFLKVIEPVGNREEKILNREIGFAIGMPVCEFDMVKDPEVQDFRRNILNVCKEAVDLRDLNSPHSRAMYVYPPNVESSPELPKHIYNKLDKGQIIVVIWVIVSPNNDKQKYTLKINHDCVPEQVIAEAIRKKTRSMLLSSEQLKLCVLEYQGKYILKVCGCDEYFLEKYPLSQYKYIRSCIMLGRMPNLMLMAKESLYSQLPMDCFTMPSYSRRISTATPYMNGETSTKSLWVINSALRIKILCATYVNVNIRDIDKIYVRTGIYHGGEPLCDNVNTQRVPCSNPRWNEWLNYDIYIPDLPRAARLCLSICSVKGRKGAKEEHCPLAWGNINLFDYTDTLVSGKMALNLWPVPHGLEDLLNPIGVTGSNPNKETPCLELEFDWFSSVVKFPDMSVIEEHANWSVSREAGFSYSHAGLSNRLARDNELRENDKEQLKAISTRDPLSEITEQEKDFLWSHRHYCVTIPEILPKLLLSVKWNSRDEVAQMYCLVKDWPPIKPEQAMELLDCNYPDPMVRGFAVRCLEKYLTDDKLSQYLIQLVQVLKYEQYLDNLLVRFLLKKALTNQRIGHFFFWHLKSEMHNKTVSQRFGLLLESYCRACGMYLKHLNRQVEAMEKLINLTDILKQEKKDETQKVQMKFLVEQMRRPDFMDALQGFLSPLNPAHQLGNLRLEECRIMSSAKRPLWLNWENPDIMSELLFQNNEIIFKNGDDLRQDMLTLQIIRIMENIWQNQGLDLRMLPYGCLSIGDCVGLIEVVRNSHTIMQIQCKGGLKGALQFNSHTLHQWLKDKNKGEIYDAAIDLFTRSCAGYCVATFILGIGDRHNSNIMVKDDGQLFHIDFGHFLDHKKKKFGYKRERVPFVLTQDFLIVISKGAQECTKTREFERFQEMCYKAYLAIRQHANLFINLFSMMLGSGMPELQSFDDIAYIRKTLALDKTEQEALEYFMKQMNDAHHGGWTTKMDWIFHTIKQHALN
# Sequence (P27986 whole entry partner): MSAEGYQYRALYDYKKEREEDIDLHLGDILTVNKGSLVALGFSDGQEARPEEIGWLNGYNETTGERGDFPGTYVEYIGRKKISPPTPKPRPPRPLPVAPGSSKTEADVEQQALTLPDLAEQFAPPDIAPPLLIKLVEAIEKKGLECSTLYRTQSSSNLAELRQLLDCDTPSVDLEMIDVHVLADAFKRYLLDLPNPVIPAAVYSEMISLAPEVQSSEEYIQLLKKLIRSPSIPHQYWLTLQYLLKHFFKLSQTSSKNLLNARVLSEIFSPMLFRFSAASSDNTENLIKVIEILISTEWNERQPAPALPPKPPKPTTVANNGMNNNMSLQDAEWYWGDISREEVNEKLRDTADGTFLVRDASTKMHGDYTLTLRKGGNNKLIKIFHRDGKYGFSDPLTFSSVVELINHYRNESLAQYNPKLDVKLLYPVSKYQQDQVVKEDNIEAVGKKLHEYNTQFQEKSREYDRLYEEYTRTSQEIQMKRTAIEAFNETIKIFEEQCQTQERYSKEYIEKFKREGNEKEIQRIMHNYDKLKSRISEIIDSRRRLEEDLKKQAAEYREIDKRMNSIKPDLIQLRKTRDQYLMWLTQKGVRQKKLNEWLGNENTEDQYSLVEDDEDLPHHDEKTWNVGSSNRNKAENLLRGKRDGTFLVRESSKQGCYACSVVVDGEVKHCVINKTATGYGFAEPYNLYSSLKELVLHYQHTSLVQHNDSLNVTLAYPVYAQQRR
# method-description: PI3Kα ADP-Glo assay
# run-conditions: 20 μM PIP2, 10 μM ATP, 30 minutes
# Procedure: (A) an In Vitro Assay which Determines the Ability of a Test Compound to Inhibit PI3Kα. Activity of PI3Kα was measured using ADP-Glo assay from Promega. […] The ADP generated was then detected by ADP-Glo assay from Promega, a luminescent ADP detection assay. […] Second, the Kinase Detection Reagent is added to simultaneously convert ADP to ATP and allow the newly synthesized ATP to be measured using a luciferase/luciferin reaction.
reported-property: IC50

The following compounds have reported results that may help.
compound-string: CN(Cc1cc2nc(-c3cccc4c3CC(=O)N4)nc(N3CCOCC3)c2s1)c1ncc(C(=O)NO)cn1
measurement: > 10 µM

compound-string: O=C(NO)c1cnc(N2CCN(Cc3cc4nc(-c5cccc6[nH]ncc56)nc(N5CCOCC5)c4s3)CC2)nc1
measurement: < 0.1 µM

Moving on to another compound below.
**Q:** Param item = CC(=O)N1CCN(c2nc(-c3cccc4[nH]ncc34)nc3cc(CN(C)c4ncc(C(=O)NO)cn4)sc23)CC1 ; retrieve measured IC50.
**A:** > 10 µM

====

# Tested on: HDACs (HeLa cell nuclear extracts)
# method-description: HDAC enzymatic activity, Biomol Color de Lys system
# Assay type: biochemical
# run-conditions: 1 hour, 25° C.
# key: entry, value: IC50

molecule: CN(Cc1cc2nc(-c3cccc(C(N)=O)c3)nc(N3CCOCC3)c2s1)c1ncc(C(=O)NO)cn1 [Compound 142]
measurement: < 100 nM
//
molecule: COc1ccc(-c2nc(N3CCOCC3)c3sc(CN(C)c4ncc(C(=O)NO)cn4)cc3n2)cn1 [Compound 236]
measurement: < 100 nM

**Q:** Param item = CC(=O)N1CCN(c2nc(-c3cccc4[nH]ncc34)nc3cc(CN(C)c4ncc(C(=O)NO)cn4)sc23)CC1 [Compound 62] ; retrieve measured IC50.
**A:** < 100 nM

====

# key: entry, value: IC50
# Tested on: HDACs (HeLa cell nuclear extracts)
# method-description: HDAC enzymatic activity, Biomol Color de Lys system
# Format: biochemical
# run-conditions: 1 hour, 25° C.

compound-string: CCCc1nc2cc(/C=C/C(=O)NO)ccc2n1CCNCc1cc2nc(-c3ccc(NC)nc3)nc(N3CCOCC3)c2s1
IC50: 100 to 1000 nM

compound-string: CN(Cc1cc2nc(-c3cccc4[nH]ncc34)nc(N3CCN(CCO)CC3)c2s1)c1ncc(C(=O)NO)cn1
IC50: < 100 nM

compound-string: O=C(CCCCN1CCN(Cc2cc3nc(-c4cccc5[nH]ncc45)nc(N4CCOCC4)c3s2)CC1)NO
IC50: 1000 to 10000 nM

**Q:** API: value(readout= IC50, system= HDACs (HeLa cell nuclear extracts), query= Nc1ccc(-c2nc(N3CCOCC3)c3sc(S(=O)(=O)Nc4ncc(C(=O)NO)cn4)cc3n2)cc1 )
**A:** < 100 nM

**Q:** Thanks! And Nc1ccc(-c2nc(N3CCOCC3)c3sc(CN(CCO)c4ncc(C(=O)NO)cn4)cc3n2)cc1 ?
**A:** < 100 nM

**Q:** Thanks! And CN(Cc1cc2nc(-c3cccc4c3CC(=O)N4)nc(N3CCOCC3)c2s1)c1ncc(C(=O)NO)cn1 ?
**A:** < 100 nM

**Q:** Thanks! And CC(=O)c1ccc(F)c(-c2nc(N3CCOCC3)c3sc(CN(C)c4ncc(C(=O)NO)cn4)cc3n2)c1 ?
**A:** < 100 nM

**Q:** Thanks! And Nc1ccc(-c2nc(N3CCOCC3)c3sc(Nc4ncc(C(=O)NO)cn4)cc3n2)cc1 ?
**A:** 100 to 1000 nM

**Q:** Thanks! And Cc1ncc(-c2nc(N3CCOCC3)c3sc(CN(CCO)c4ncc(C(=O)NO)cn4)cc3n2)s1 ?
**A:** < 100 nM

**Q:** Thanks! And CN(Cc1cc2nc(-c3ccc(F)cc3)nc(N3CCOCC3)c2s1)c1ncc(C(=O)NO)cn1 ?
**A:** < 100 nM
